Where these numbers come from: the nanobody polyreactivity screen of Harvey et al. (2022)

measurement-protocol: yeast display, Sf9 membrane polyspecificity reagent, FACS + sequencing; frameworks hold sequencing errors
parameter-measured: polyreactivity (PSR sort gate)

1) QVQLVESGGGLVQAGCSLRLSCAASGFILNWYAMGCYRQAPGKERELVAAISWTTSDTYYADSVKGRFTISRDNAKHTVYLQMNSLKPEDQAVYYCATQGYISFPPPAYYEYNYWGQGTQETVSS; low polyreactivity
2) QVQIVESGGGLVQAGGSLRLSCAASGSTFDDYVMGWYRQAPGKEREFVAAISTNGGSTYYADSVKGRFTISRDNAKNTVYLQMNSLKPEDTAVYYCAAESQDFYAILGLYDYWGQGTQVTVSS; low polyreactivity

---

measurement-protocol: yeast display, Sf9 membrane polyspecificity reagent, FACS + sequencing; frameworks hold sequencing errors
parameter-measured: polyreactivity (PSR sort gate)

Some sequences with known polyreactivity (PSR sort gate) results, for comparison:
1. QVQLVESGGGLVQAGGSLRLSCAASGFIFGWNAMGWYREAPGKERELVAALTRTGSTYYADSVKGRFTISRDNAKNTVYLQMNSLKPEDTAVYYCAASYGSRSTRTEGYWGQGTQVTVSS; low polyreactivity
2. QDPLVESGGGLVQAGGSLSLSCAASGRNIPVYAMGWYSQAPGKERELVATISYSGSSTYYADSVKGRFTNSRDNAKNTVYLEMYSLKPEDTAVYYWNADAFGPPGVQYYNWGQGTKVTVSS; low polyreactivity
3. QGQHVESGGGLVQAGGSLRLSCAASGRIFVPYAMGWYRQAPGKERELVAAITWRGGSPYYADSVKGRFTLSRDNAKNTVYLQMNSLKPVDTAVYYCNAAEASPWFWFSHLQVGMDYWGQGTQVTVSW; low polyreactivity
4. QVQLVESGGGLVQAGGSLRLSCAASGFTFTRNAMGLYRQAPGKERELFAAISKRGGTTYYADSVKGRFSISRDYAKNTVYLQMNSLKPEDTAVYYCAKDGGITGGYWGQGSQVTVSS; high polyreactivity
5. QVQLQESGGGLVQAGGSLRLSCAASGTITVLYKMGWFRQAPGKEREFVASINYGTSTYYADSVKGRFTVSRDSAKNSVYLQMNSLKPEDTAVYYCAAAYRWQDVYRYWGQGTQVTVSS; low polyreactivity

Would you mind giving polyreactivity (PSR sort gate) for every sequence in the list below?
1. QVQLVESGGSIVQAGGSLRLSCAASGSTFDVYDMGWYRHAPGKERELVAAITTSGGGTYYADSVKGRFTISRDNAKNTGYLQMNSLKPEDTAVYYCAADTWRDGDDYWGQGTQVTVSS
2. QVQLVESGGGLVQAGGSLRLSCAASGRTFIFYAMGWYRQAPGKERELVAAISSSGSGTYYADSVKGRFTISRDNAKNTVYFQMNSLKPEDTAVYYCAADVVNSRRRPKYGYWGQGTQVTVSS
3. QVQLVESGGGLVQAGGSLRLSCAASGRTFAIYAMGWYRQAPGKERELVAVINYSGDRTYYADSVKGRFTISRDNAKNTVYLQMNSLKPEDTAVYYCAAVLEYTSDYLSGENDYWGQGTQVTVSS
4. QVQLVESGGGLVQAGGSHRLSCAASGIIFPWYVMGWYRQAPGKERELVAAITQSGGSTFYADSLKGRFTISRDNAKNTVYLQMNCLKPEDTAVYYCHTEDFFKFPEMDSWGQGTQLTVSS
5. QVQLVESGGGLLQAGGSLRLSCAASGTIFKYYAMGWYRQAPGKERELVAAISRSGSNTYYADSVKGRFRISRDNAKNTVYLQMNTLKPEDTAVYYFAARARRYIYTFDSWGQGTQVTVSS
6. QVQLVESGGGLVQAGGSLRLSCAASGSISYPYDMGWYRQAPGKDRELVAAISGSGGRTYYADSLKGRFTLSRDTAKNTVYLQMNSLKPEVTAVYYCAAERGAYRGVTFTYGYWGQGTQVTVSS

Result ::
1: low polyreactivity; 2: low polyreactivity; 3: low polyreactivity; 4: low polyreactivity; 5: high polyreactivity; 6: high polyreactivity

---

measurement-protocol: yeast display, Sf9 membrane polyspecificity reagent, FACS + sequencing; frameworks hold sequencing errors
parameter-measured: polyreactivity (PSR sort gate)

Some sequences with known polyreactivity (PSR sort gate) results, for comparison:
1) QVQLVESGGGLVQAGGSLRLSCAASGSIFRVYAMGWYRQAPGKERELVASISRRGGSTYYADSVKGRFTISRDYAKNTVYLQMNSLKPEDTAVYYCAAEFVIGGHGYDYWGQGTQVSVSS; high polyreactivity
2) QDQLVESGGGLVQAGGSLRLSCAASGYTFRYNAMGWYIQATGKERELVATITRGGSTNYADSVKGRFTISRDNAKNTVYLQMNSLKPEDTAVYYCNKEAAPLAFVPSYYGRDYWGQGTEVTVSS; low polyreactivity
3) QVQLVESGGGLVQAGGSLRLSCAASGSTFAGNAMGWYRQAPGKERELVAAISSGDRTYYADSVKGRFIISRDNAKNTVYLQMNSLKPEDTAVYYCAAGLYLQGPFDYWGQGTQVTVSS; low polyreactivity
4) QVHLVESGGGLVQAGGSLRLSCAASGSILVWYAMGWYRHAPGKERELVAAISQSGGRTYYADSVKGRFTISRDNAKNNVYLQMNSLKPEDTAVYYGAAFYTSYWGYDYDYWGQGTQVTVSS; low polyreactivity
5) QVQLVESGGGLVQAGGSLRLSCAASGRTFVRYAMGWYRQAPGKEREFVAAITGSGGITYYADSVKGRFTISRDNAKNTVYLQMNSLKPEDTAVYYCAARGGFGRYWYDYWGQGTQVTVSS; high polyreactivity

Would you mind giving polyreactivity (PSR sort gate) for every sequence in the list below?
1. QFQLVESGGGLVQAGGSLRLSCAASGFNFGWYDMGWYRQAPGKERELVASISWSGSSTYYADSVKGRFTISRDNAKNTVYLQMNSLKPEDTAVYYCATPYWRRYDYWGQGTQVTVSS
2. QVQLVESGGGLVQAGGRLRLSCAASGITSLDNAMGWYRQAPGKQRELVAGIKSGGSTNYADSVKGRFTISRDNAKNTVYLQMNSLKPEDTAVYYCAADDFIGSGRLVARGRYDYWGQGTQVTVSS
3. QVQLVESGGGLVQAGGSLRLSCAASGRIFGGNTMGWYRQAPGKERELVAAITSGGSTTYADSVKGRFTISRDNAKNTVYLHMNSLKPEDSEVYYCAARYVYPHQWTPYIRPYDYWGQGTQVTVSS
4. QVQLVESGGGLVQAGGSLRLSCAASGLTFHVNAMGWYRQAPGKERELVAGITFSGGSTYYADSVKGRFTISRDNAKNTVYLLMNSLTPEDTAVYYCAADARFYAYYYWGQGTQVSVSS

Result ::
1. high polyreactivity
2. low polyreactivity
3. low polyreactivity
4. low polyreactivity

Would you mind giving polyreactivity (PSR sort gate) for every sequence in the list below?
1. QVQLVESGGGLLQAGGSLRLSCAASGITFTGYAMGWYRQAPGKERELVAVISETGGSTYADSVKGRFTISRDNAKNTVYLQMNSLKPEDTAVYYCAARLWWPYSTAWAKMDYWGQGTQVTVSS
2. QVQLVESGGGLVQAGGSLRLSCAASGFTVSWYVMGWYRQAPGKERELVAAITWSGGNTYADSVKGRFTISRDNAKNTVYLQMNSLKPEDTAVYYCAADPAHGTKWYVYPSHDDYWGQGTQVTVSS
3. QVQLVESGGGLVQAGGSLRISCAASGGIFQRYDMGWYRKATGKERELVAAITRSGGSTYYADSVKGRFTISRDNAKNTVYLQMNSLKPEDTAVYYCAARTYGCYEYWGQGTQVTVSS
4. QVQLVESGGGLVQAGGSLRLSSAASGRIFNPNGMGWYRQAPGKDRELVAVITRSGTSTYYADSVKGRFTISREYAKNTFYRQMYSLKPEDTAVYYCNAGKKYVDYGVLSSRYYWGQGTQVTVSS
5. QVQLVESGAGIVQAGGSLRVSSAASGSIFHSYAMGWYRQEPGKERELVAGITYRTGSTYYADSVKGRVTNSRDNAKNTVYFQMNSLKPEDTAVYYCAAGYYSRYFEAFEYYYWGLGTQVTVSS
6. QVQLVESGGGLVQAGGSLRLSCAASGLTFVKNAMGWYRQAPGKDRELVATISSGGSTNYADSVKGRFTISRDNAKNTVYLQMNSLKPEDTAVYYCNKDITGVLLWIWWDRYDYWGQGTQVTVSS
7. QVQLVESGGGLVQAGGRLRLSCAASGRIFLFYDMGWYRQAPGKERELVATISFRRGSTYYADSVKGRFTISRDNAKNTVYLQMNSLKPEDTAVYYCAKQNKRGYSTSAYYYWGQGTQVTVSS

Result ::
low polyreactivity
low polyreactivity
high polyreactivity
low polyreactivity
high polyreactivity
high polyreactivity
low polyreactivity

Would you mind giving polyreactivity (PSR sort gate) for every sequence in the list below?
1. QVQLVESGGGLVQAGGSLRLSCAASGIIFVSYAMGWYRQAPGKERELVADITSGGRTYYADSVKGRFTISRDNAKNTVYLQMNSLKPEDTAVYYCAATYSYKGRWVWVYYWGQGTQVTVSS
2. QVQLVESGGGLVQAGGSLRLSCPASGFTFRRYAMGWSRQQPGKESELDAAITRNGGSTYYADSVKGRFTISRDNAKNTVYLLINRLKPEDTAVYYCNAVLYTPVYDCFDSWGQGTQVTVSS
3. QVQLVESGGGIVQAGGSLRLTCAASGRIFPTYAMGWYRQAPGKEREMVATINGDGGSTYYAYSVKGRFTISRDNPKNTVYLHMNSLKPEDTSVDYCAKSYPFAAEYDYWGQGSQVTVSS
4. QVQLVESGGGLVQAGGSLRLSCAASGGTFAWYAMGWYRQAPGKERELVAAITSDGNTDYADSVKGRFTISRDNAKNTVYLQMNSLKPEDTAVYYCAADVQWRSAYDYTMGYWGQGTQVTVSS
5. QVQLVESGGGLVQAGGSLRLSCAASGRIIDFYTMGWYRQAPGKERELVAGINGSGASTYYADSVKGRFTISRDNAKNTVYLQMNCLKPEDTAVYYCAKDPGYYDDYDYWGQGTQVTVSS

Result ::
["high polyreactivity", "high polyreactivity", "low polyreactivity", "low polyreactivity", "low polyreactivity"]
